// values below are reported CLint scaled at 1 µM
Assay: Clearance in microsomes, human
Format: in vitro ADME
Conditions: 1 microM, read-out: CLint, Human (L/h/kg) ± SD (converted)
Numeric only. Scale: L/h/kg

Recorded result, COc1cnc(C(=O)Nc2ccc(F)c([C@]3(C)CC[C@@](F)(CF)C(N)=N3)c2)cn1 , CLint scaled at 1 µM: 0.51

Lookup result for [2H]C([2H])([2H])Oc1cnc(C(=O)Nc2ccc(F)c([C@]3(C)CC[C@@](F)(CF)C(N)=N3)c2)cn1 ; measured CLint scaled at 1 µM: 0.2

Pending molecule:
Noted for [2H]C([2H])([2H])Oc1ccc(C(=O)Nc2ccc(F)c([C@@]3(C(F)F)N=C(N)CCC3(F)F)c2)nc1 : its CLint scaled at 1 µM reads 0.5

###

Assay: Bioanalysis of brain and plasma samples (UPLC-MS/MS)
Assay type: in vivo, Sprague Dawley rats
Details: male, Sprague-Dawley, brain, po; rat, p.o., 40 mg/kg, 1 h; read-out: Mean rat brain conc.
ENDPOINT LABEL: concentration at 1 h

Quick note, concentration at 1 h for [2H]C([2H])([2H])Oc1cnc(C(=O)Nc2ccc(F)c([C@]3(C)CC[C@@](F)(CF)C(N)=N3)c2)cn1 [Example 1] landed at 2800 ng/g

###

Assay: Clearance in microsomes, cyno
Assay type: in vitro ADME
Conditions: cynomolgus monkey, 0.1 microM, read-out: CLint, Cyno (L/h/kg) ± SD (converted)
ENDPOINT LABEL: CLint scaled at 0.1 µM (L/h/kg)
Please reply with the bare figure in L/h/kg and do not write the unit itself.

Quick note, CLint scaled at 0.1 µM for COc1cnc(C(=O)Nc2ccc(F)c([C@]3(C)CC[C@@](F)(CF)C(N)=N3)c2)cn1 landed at 70

###

Assay: Clearance in microsomes, rat
Type: in vitro ADME
Conditions: 0.1 microM, read-out: CLint, Rat (L/h/kg) ± SD (converted)
ENDPOINT LABEL: CLint scaled at 0.1 µM (L/h/kg)
Report the figure in L/h/kg without appending any unit label.

Measured CLint scaled at 0.1 µM, COc1cnc(C(=O)Nc2ccc(F)c([C@]3(C)CC[C@@](F)(CF)C(N)=N3)c2)cn1 : 2.7

###

Assay: Bioanalysis of brain and plasma samples (UPLC-MS/MS)
Format: in vivo, Sprague Dawley rats
Settings: male, Sprague Dawley, brain, po; rat, p.o., 10 mg/kg, 6 h; read-out: Mean rat brain conc.
ENDPOINT LABEL: concentration at 6 h (ng/g)
Numeric only. Scale: ng/g

concentration at 6 h for [2H]C([2H])([2H])Oc1cnc(C(=O)Nc2ccc(F)c([C@]3(C)CC[C@@](F)(CF)C(N)=N3)c2)cn1 is 430

###

Assay: Bioanalysis of brain and plasma samples (UPLC-MS/MS)
Assay type: in vivo, Sprague Dawley rats
Settings: male, Sprague-Dawley, plasma, po; rat, p.o., 40 mg/kg, 3 h; read-out: Mean rat plasma conc.
ENDPOINT LABEL: concentration at 3 h
Hey, just the number and the unit after it is fine.

# concentration at 3 h of [2H]C([2H])([2H])Oc1cnc(C(=O)Nc2ccc(F)c([C@]3(C)CC[C@@](F)(CF)C(N)=N3)c2)cn1 = 1100 ng/mL

###

Experiment: Bioanalysis of brain and plasma samples (UPLC-MS/MS)
Assay type: in vivo, Sprague Dawley rats
Settings: male, Sprague-Dawley, brain/plasma, po; rat, p.o., 40 mg/kg, 6 h; read-out: Brain/Plasma ratio
Method: Young adult Male Sprague Dawley rats of approximately 250 g weight were purchased from Charles River and received vehicle (2.5% HP betaCD+1M MeSO4, pH 2.5) or 0-40 mg/kg of test compounds (dissolved in vehicle) by oral gavage (p.o). The compounds are dosed at a volume of 5 ml/kg. Cohorts of 5-10 animals were established for each treatment condition. […] TC was determined in plasma and brain homogenate using UltraPerformance LC® (UPLC®) chromatography followed by tandem-MS (MS/MS) detection. […]
ENDPOINT LABEL: Kp at 6 h
Answer with a number only.

Recorded Kp at 6 h (compound [2H]C([2H])([2H])Oc1cnc(C(=O)Nc2ccc(F)c([C@]3(C)CC[C@@](F)(CF)C(N)=N3)c2)cn1 [Example 1] ): 3
